- System: RIPK2;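 further: KINOMEscan kinase panel screen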
- Cond: concentration: 1 μM, replicates: in singlicate; n = 1
Quick list: %Inh per entry.
Test Readout: %Inh (%)

molecule=Cc1ccc(NC(=O)c2ccnc(N3CCN(C)CC3)c2)cc1-c1ccc(C(=O)NCC2CC2)cc1 units=% assay_result=0
molecule=Cc1cn2c(=O)cc(N3CCOCC3)nc2n1Cc1cccc(Cl)c1Cl units=% assay_result=14
molecule="Cc1nnc(-c2ccc3ncc(-c4ccc(S(C)=O)cc4)n3c2)o1 (centres unmarked)" units=% assay_result=21
molecule=O=C(Nc1cccc(-c2nn3ncccc3c2-c2ccnc(Nc3cccc(C(F)(F)F)c3)n2)c1)c1c(F)cccc1F units=% assay_result=86
molecule=CN1c2ccc(CNc3ccc(F)cc3)cc2-c2c(cnn2C)S1(=O)=O units=% assay_result=2
molecule="NCC(NC(=O)c1cc(-c2cn[nH]c2)c(-c2ccnc3[nH]ccc23)s1)c1ccccc1.O=C(O)C(F)(F)F.O=C(O)C(F)(F)F (centres unmarked)" units=% assay_result=0
molecule=Cl.Nc1ncnc2occ(-c3ccc(NC(=O)Nc4cc(C(F)(F)F)ccc4F)cc3)c12 units=% assay_result=42
molecule=CCCCCc1nc2c(N)ncnc2n1CCCCC units=% assay_result=22
molecule=O=C(NOCC1CC1)c1ccc(F)c(F)c1Nc1ccc(I)cc1Cl units=% assay_result=0
molecule=COC(=O)Nc1nc2cc(Oc3ccc(NC(=O)Nc4cc(F)ccc4F)cc3)ccc2[nH]1.Cl units=% assay_result=38
molecule=O=C(NCCNc1ccnc(Nc2ccc(F)cc2)n1)Nc1ccccc1F units=% assay_result=1
